Task for the reader: assign each of the following compounds its reported Mouse Hepatic Microsome CLh,int NADPH(-).
Test: Metabolic stability test: liver microsomal stability assay
Assay type: in vitro ADME, mouse
Conditions: mouse liver microsomes 0.5 mg protein/mL, compound 1 µM, absence of NADPH
Starred links: 1 amine or outer side, 2 acyl side, 3 side chain; linkers in the order of their positions; H or OH if unused. Positions of bridges follow the written chain, without caps; N, C: chain ends. Non-standard residues stand in square brackets, D forms with d. Residues, ends and D or L forms follow the SMILES beside them. *: point of attachment. NMeF = CN[C@@H](Cc1ccccc1)C(=O)O; NMeGABA = CN(CCCC(=O)[*:2])[*:1]; NMeI = CC[C@H](C)[C@H](NC)C(=O)O; hPhe = N[C@@H](CCc1ccccc1)C(=O)O; NMeβAla = CN(CCC(=O)[*:2])[*:1]; NMeD = CN[C@@H](CC(=O)O)C(=O)O; NMeL = CN[C@@H](CC(C)C)C(=O)O; NMeV = CN[C@H](C(=O)O)C(C)C; d(β3hA) = C[C@@H](N)CC(=O)O; NMeAbu = CC[C@H](NC)C(=O)O; NMeA = CN[C@@H](C)C(=O)O; Piperidide = C1CCN(*)CC1; dNMeA = CN[C@H](C)C(=O)O; Abu = CC[C@H](N)C(=O)O; Sar = CNCC(=O)O; tBu = CC(C)(C)*
Numbers only, in µL/min/mg Protein.

- compound: "CC[C@@H]1NC(=O)[C@H](CC(C)C)N(C)C(=O)[C@H](C)NC(=O)CN(C)C(=O)[C@H](CC(C)C)N(C)C(=O)CCN(C)C(=O)[C@H](Cc2ccccc2)N(C)C(=O)[C@H]([C@@H](C)CC)NC(=O)[C@H]([C@@H](C)CC)N(C)C(=O)[C@@H](C)NC(=O)C[C@@H](C(=O)N2CCCCC2)N(C)C(=O)[C@H](Cc2ccccc2)N(C)C(=O)[C@H](C(C)C)NC(=O)[C@H](C)N(C)C1=O [pd076] ([dA][NMeI]I[NMeF][NMeβAla][NMeL][Sar]A[NMeL][Abu][NMeA]V[NMeF][NMeD]-Piperidide; lactam N-14)"
  numeric_value: 18.2
- compound: "CC[C@H](C)[C@@H]1NC(=O)[C@H](C)N(C)C(=O)[C@H]([C@@H](C)O)NC(=O)[C@H](Cc2ccccc2)N(C)C(=O)[C@H](COC(C)(C)C)NC(=O)[C@H](CC(C)C)N(C)C(=O)[C@H](CCc2ccccc2)NC(=O)[C@@H]2CCCN2C(=O)[C@H]([C@@H](C)CC)NC(=O)[C@H](CC(C)C)N(C)C(=O)CCCN(C)C(=O)C[C@@H](C(=O)N2CCCCC2)NC(=O)[C@H](CC(C)C)N(C)C1=O [pd102] ([NMeGABA][NMeL]IP[hPhe][NMeL]S(tBu)[NMeF]T[NMeA]I[NMeL]D-Piperidide; lactam N-13)"
  numeric_value: 25.1
- compound: "CC[C@H]1C(=O)N[C@@H](COC(C)(C)C)C(=O)N(C)[C@@H](Cc2ccccc2)C(=O)N(C)[C@@H](C(C)C)C(=O)N[C@H](C)CC(=O)N(C)[C@H](C)C(=O)N(C)[C@@H](CC(C)C)C(=O)N(C)[C@@H](C(C)C)C(=O)N2CCC[C@H]2C(=O)N[C@@H](C(C)C)C(=O)N(C)[C@@H](Cc2ccccc2)C(=O)N[C@@H]([C@@H](C)O)C(=O)N(C)[C@@H](CC(C)C)C(=O)N(C)[C@@H](C)C(=O)N1C [pd058] (cyclo([NMeA][NMeAbu]S(tBu)[NMeF][NMeV][d(β3hA)][dNMeA][NMeL][NMeV]PV[NMeF]T[NMeL]))"
  numeric_value: 14.8

Problem: Output measured Mouse Hepatic Microsome CLh,int NADPH(-) for this item: CC[C@H](C)[C@H]1C(=O)N[C@@H]([C@@H](C)O)C(=O)N(C)CC(=O)N(C)[C@@H](CC(C)C)C(=O)N(C)[C@@H](Cc2ccccc2)C(=O)N[C@H](C(=O)N2CCCCC2)CC(=O)N(C)[C@@H](C)C(=O)N[C@@H](CC(C)C)C(=O)N(C)[C@@H](Cc2ccccc2)C(=O)N(C)[C@@H](C)C(=O)N(C)[C@@H](CC(C)C)C(=O)N[C@@H](COC(C)(C)C)C(=O)N(C)[C@@H](C)C(=O)N[C@@H](CC(C)C)C(=O)N1C [pd044] ([NMeA]L[NMeF][NMeA][NMeL]S(tBu)[NMeA]L[NMeI]T[Sar][NMeL][NMeF]D-Piperidide; lactam N-14)
Result: 33.1

---

Tested on: Caco-2 cells
Test: Membrane permeability test using Caco-2 cells with preincubation
Format: in vitro ADME
Conditions: Caco-2 cells, preincubation 20 to 24 hours; apical FaSSIF/HBSS 1% DMSO pH 6.0, basal HBSS 4% BSA pH 7.4; basal sample at 180 minutes
Starred links: 1 amine or outer side, 2 acyl side, 3 side chain; linkers in the order of their positions; H or OH if unused. Positions of bridges follow the written chain, without caps; N, C: chain ends. Non-standard residues stand in square brackets, D forms with d. Residues, ends and D or L forms follow the SMILES beside them. *: point of attachment. NMedβ3hAla = C[C@H](CC(=O)[*:2])N(C)[*:1]; NMeF = CN[C@@H](Cc1ccccc1)C(=O)O; NMeGABA = CN(CCCC(=O)[*:2])[*:1]; NMeI = CC[C@H](C)[C@H](NC)C(=O)O; NMeT = CN[C@H](C(=O)O)[C@@H](C)O; hPhe = N[C@@H](CCc1ccccc1)C(=O)O; NMeβAla = CN(CCC(=O)[*:2])[*:1]; NMeD = CN[C@@H](CC(=O)O)C(=O)O; NMeL = CN[C@@H](CC(C)C)C(=O)O; NMeV = CN[C@H](C(=O)O)C(C)C; d(β3hA) = C[C@@H](N)CC(=O)O; NMeAbu = CC[C@H](NC)C(=O)O; NMeA = CN[C@@H](C)C(=O)O; Piperidide = C1CCN(*)CC1; dNMeA = CN[C@H](C)C(=O)O; Abu = CC[C@H](N)C(=O)O; Sar = CNCC(=O)O; tBu = CC(C)(C)*
quantity_kind: Caco2 Papp (10^-6 cm/sec)

Please review the following examples before continuing.
- compound: "CC[C@H]1C(=O)N(C)[C@@H](CC(C)C)C(=O)N[C@@H]([C@@H](C)O)C(=O)N(C)[C@@H](C)C(=O)N(C)[C@@H](CC(C)C)C(=O)N[C@H](C(=O)N2CCCCC2)CC(=O)N(C)CCCC(=O)N[C@@H](CC(C)C)C(=O)N(C)[C@@H](CC(C)C)C(=O)N(C)[C@@H](C)C(=O)N(C)[C@@H](Cc2ccccc2)C(=O)N[C@@H](C)C(=O)N(C)[C@@H](Cc2ccccc2)C(=O)N1C [pd117] ([NMeGABA]L[NMeL][NMeA][NMeF]A[NMeF][NMeAbu][NMeL]T[NMeA][NMeL]D-Piperidide; lactam N-13)"
  Caco2 Papp (10^-6 cm/sec): "0.17 10^-6 cm/sec"
- compound: "CC[C@@H]1NC(=O)[C@H](Cc2ccccc2)N(C)C(=O)[C@H](CC(C)C)NC(=O)CNC(=O)[C@H]([C@@H](C)O)N(C)C(=O)[C@H](CC(C)C)N(C)C(=O)[C@H]([C@@H](C)CC)NC(=O)[C@H](Cc2ccccc2)N(C)C(=O)CN(C)C(=O)C[C@@H](C(=O)N2CCCCC2)NC(=O)[C@H](C(C)C)N(C)C(=O)[C@H](CC(C)C)NC(=O)[C@H](C(C)C)NC(=O)[C@H](C)N(C)C1=O [pd030] ([Sar][NMeF]I[NMeL][NMeT]GL[NMeF][Abu][NMeA]VL[NMeV]D-Piperidide; lactam N-14)"
  Caco2 Papp (10^-6 cm/sec): "0.04 10^-6 cm/sec"
- compound: "CC(C)C[C@@H]1NC(=O)[C@H](CC(C)C)N(C)C(=O)[C@H]([C@@H](C)O)NC(=O)[C@H](C(C)C)N(C)C(=O)[C@H](Cc2ccccc2)N(C)C(=O)[C@@H](C(C)C)NC(=O)C[C@@H](C(=O)N2CCCCC2)N(C)C(=O)[C@H](C)N(C)C(=O)[C@H](Cc2ccccc2)N(C)C(=O)[C@H](C)NC(=O)[C@H](COC(C)(C)C)NC(=O)[C@H](CC(C)C)N(C)C(=O)[C@H](C(C)C)NC(=O)CN(C)C1=O [pd086] ([dV][NMeF][NMeV]T[NMeL]L[Sar]V[NMeL]S(tBu)A[NMeF][NMeA][NMeD]-Piperidide; lactam N-14)"
  Caco2 Papp (10^-6 cm/sec): "0.06 10^-6 cm/sec"

Value sought for every listed compound: Caco2 Papp (10^-6 cm/sec).
1. CC[C@H](C)[C@@H]1NC(=O)[C@H](CC(C)C)N(C)C(=O)C[C@@H](C)NC(=O)[C@H](C(C)C)N(C)C(=O)[C@H](COC(C)(C)C)NC(=O)[C@H](CC)N(C)C(=O)[C@H](Cc2ccccc2)N(C)C(=O)[C@H](CC(C)C)NC(=O)[C@@H]2CCCN2C(=O)[C@H]([C@@H](C)O)N(C)C(=O)[C@H](CC(C)C)N(C)C(=O)[C@H](CC)N(C)C(=O)[C@H](C(C)C)N(C)C(=O)[C@H](CC(C)C)N(C)C1=O [pd061] (cyclo(I[NMeL][NMeV][NMeAbu][NMeL][NMeT]PL[NMeF][NMeAbu]S(tBu)[NMeV][d(β3hA)][NMeL]))
2. CC[C@H](C)[C@@H]1NC(=O)[C@H](Cc2ccccc2)N(C)C(=O)[C@H](C(C)C)NC(=O)[C@@H](C)N(C)C(=O)C[C@@H](C)NC(=O)[C@H](C(C)C)N(C)C(=O)[C@H](Cc2ccccc2)N(C)C(=O)[C@H](COC(C)(C)C)NC(=O)[C@H](CC(C)C)N(C)C(=O)[C@H](C)N(C)C(=O)[C@@H]2CCCN2C(=O)[C@H]([C@@H](C)O)NC(=O)[C@H](CC(C)C)N(C)C1=O [pd130] (cyclo(I[NMeL]TP[NMeA][NMeL]S(tBu)[NMeF][NMeV][d(β3hA)][dNMeA]V[NMeF]))
3. CC[C@H](C)[C@@H]1NC(=O)[C@H](CC(C)C)N(C)C(=O)[C@H](CC(C)C)NC(=O)CCN(C)C(=O)C[C@@H](C)N(C)C(=O)CN(C)C(=O)[C@H](CC(C)C)N(C)C(=O)[C@@H]2CCCN2C(=O)[C@H](CC(C)C)N(C)C(=O)[C@H](COC(C)(C)C)NC(=O)[C@H]([C@@H](C)CC)N(C)C(=O)[C@H](CCc2ccccc2)NC(=O)[C@H](Cc2ccccc2)N(C)C1=O [pd142] (cyclo(I[NMeF][hPhe][NMeI]S(tBu)[NMeL]P[NMeL][Sar][NMedβ3hAla][NMeβAla]L[NMeL]))
4. CC[C@H](C)[C@@H]1NC(=O)[C@H](C)N(C)C(=O)CCCN(C)C(=O)C[C@@H](C)NC(=O)[C@H](C(C)C)N(C)C(=O)[C@H](CC(C)C)N(C)C(=O)[C@H](C)N(C)C(=O)[C@H]([C@@H](C)O)N(C)C(=O)[C@H](CCc2ccccc2)NC(=O)[C@H](C(C)C)NC(=O)[C@H](Cc2ccccc2)N(C)C(=O)[C@H](CC)N(C)C(=O)[C@H](C)N(C)C(=O)[C@H](C(C)C)N(C)C1=O [pd059] (cyclo(I[NMeV][NMeA][NMeAbu][NMeF]V[hPhe][NMeT][NMeA][NMeL][NMeV][d(β3hA)][NMeGABA][NMeA]))

Result:
["0.51 10^-6 cm/sec", "3.88 10^-6 cm/sec", "0.71 10^-6 cm/sec", "0.52 10^-6 cm/sec"]

Source listed as patent EP4768499A1.
